Origin of measurements: the supplement of paper PMC13380429

Tested on: HepG2
Assay: drug sensitivity score (DSS) for viability; higher = more toxic; extreme values may be limits of the assay
Conditions: 72 h
READOUT LABEL: drug sensitivity score
Numbers only.

- COMPOUND: "O=C(c1ccccc1)c1ccc2n1CCC2C(=O)O (centres undefined) [ketorolac]"
  drug sensitivity score: 0.2
- COMPOUND: "CCCCCCCCCCCCCCCC[N+](C)(C)Cc1ccccc1 [benzyldimethylhexadecylammonium]"
  drug sensitivity score: 4.8
- COMPOUND: "COc1cccc2c1C(=O)c1c(O)c3c(c(O)c1C2=O)C[C@@](O)(/C(CO)=N/NC(=O)CCCCCN1C(=O)C=CC1=O)C[C@@H]3O[C@H]1C[C@H](N)[C@H](O)[C@H](C)O1 [aldoxorubicin]"
  drug sensitivity score: 21.6

--- query ---
Value sought: drug sensitivity score, system HepG2, item CCCNC(C)(C)COC(=O)c1ccccc1 [meprylcaine] . Result: 0
